Biological target: DNA ligase I (LIG1) wild-type (Homo sapiens, UniProt P18858 1-919)
Sequence (P18858 whole entry): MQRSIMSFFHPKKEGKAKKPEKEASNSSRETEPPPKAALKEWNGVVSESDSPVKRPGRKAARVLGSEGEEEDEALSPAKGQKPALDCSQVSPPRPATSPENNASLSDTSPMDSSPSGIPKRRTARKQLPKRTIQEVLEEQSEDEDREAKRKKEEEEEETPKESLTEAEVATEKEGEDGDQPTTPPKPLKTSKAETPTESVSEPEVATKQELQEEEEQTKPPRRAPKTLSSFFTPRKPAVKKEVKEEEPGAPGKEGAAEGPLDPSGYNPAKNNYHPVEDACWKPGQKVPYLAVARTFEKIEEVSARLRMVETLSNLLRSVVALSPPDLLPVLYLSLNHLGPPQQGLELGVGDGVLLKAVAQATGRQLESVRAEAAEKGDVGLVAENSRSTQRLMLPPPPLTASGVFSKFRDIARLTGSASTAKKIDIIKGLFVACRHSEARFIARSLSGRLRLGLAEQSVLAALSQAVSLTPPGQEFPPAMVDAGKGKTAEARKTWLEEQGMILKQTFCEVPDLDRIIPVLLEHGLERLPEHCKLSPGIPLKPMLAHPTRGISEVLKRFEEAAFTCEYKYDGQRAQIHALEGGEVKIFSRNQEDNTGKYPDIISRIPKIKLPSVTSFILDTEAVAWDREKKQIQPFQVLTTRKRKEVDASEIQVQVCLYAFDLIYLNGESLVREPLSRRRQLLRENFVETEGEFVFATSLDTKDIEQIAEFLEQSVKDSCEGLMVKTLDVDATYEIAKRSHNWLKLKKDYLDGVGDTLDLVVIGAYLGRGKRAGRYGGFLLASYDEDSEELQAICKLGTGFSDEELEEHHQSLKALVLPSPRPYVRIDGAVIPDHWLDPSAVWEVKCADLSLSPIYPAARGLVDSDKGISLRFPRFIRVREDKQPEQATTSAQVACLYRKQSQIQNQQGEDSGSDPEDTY
Experiment: BLI; no Mg2+ or ATP listed in kinetics buffer; BLI (Octet QKe, streptavidin sensors, 40 nM DNA loaded, LIG1 10-2430 nM): Hepes pH 7.4, 200 mM NaCl, 0.5% BSA, 0.05% Tween 20, 20 °C; 1:1 binding model
Conditions: protein: recombinant; tags: His-tag; label: 3'-biotin on downstream strand (S2); 1-nt gap opposite template T; 34-nt template (S7 equals S4 reversed to 5'-3') with 17-nt upstream and 16-nt downstream strands; outer ends blunt
pKd: −log10 of the molar value.
property.measured: pKd

State its pKd: one-nucleotide-gap DNA, template T (BLI) (dsDNA) DNA 1: CATGGGCGGCATGAACC DNA 2: GAGGCCCATCCTCACC DNA 3: GGTGAGGATGGGCCTCTGGTTCATGCCGCCCATG
~7.08
